Data credit: patent US20030148958A1

Provide the reported CRF2R Emax of each item.
Target: T1, corticotropin releasing factor 2 receptor; also: reference of the scale not given here
T1 sequence (Q13324 whole entry, species assumed, looked up): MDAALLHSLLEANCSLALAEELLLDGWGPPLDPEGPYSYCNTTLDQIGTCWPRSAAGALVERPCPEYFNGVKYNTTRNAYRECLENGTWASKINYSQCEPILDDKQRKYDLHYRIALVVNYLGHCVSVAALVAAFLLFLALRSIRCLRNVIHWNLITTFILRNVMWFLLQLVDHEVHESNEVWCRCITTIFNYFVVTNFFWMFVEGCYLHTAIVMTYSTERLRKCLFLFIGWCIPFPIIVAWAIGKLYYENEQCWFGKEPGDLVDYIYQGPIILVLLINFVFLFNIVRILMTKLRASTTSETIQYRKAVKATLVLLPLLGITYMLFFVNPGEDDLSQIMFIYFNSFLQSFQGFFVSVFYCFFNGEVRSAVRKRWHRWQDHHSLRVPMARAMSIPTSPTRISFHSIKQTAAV
Assay: cell-based or functional assay
Kindly provide the numeric value in % only, without the unit symbol.

Form: binder = ZGPPISIDLPTLLLRKMIEIEKQEKEKQQAANNRLLLDTI (C-terminal amide) [SEQ ID NO 51] ; CRF2R Emax = 100

CRF2R Emax measured on ZGPPISIDLPLHLLRKMIEIEKQEKEKQQATTNARILARV (C-terminal amide) [SEQ ID NO 145] = 69

The binder identified as ZGPPISIDLPFQLLRKMIEIEKQEKEKQQATTNARILARV (C-terminal amide) [SEQ ID NO 148] registered its CRF2R Emax at 51.5

According to the records, this binder ZGPPISIDLPLHLLRKMIEIEKQEKEKQQAANNRLLLDTI (C-terminal amide) [SEQ ID NO 83] displays CRF2R Emax of 81

Entry under test: ZGPPISIDLPFQLLRKMIEIEKQEKEKQQATTNARLLARV (C-terminal amide) [SEQ ID NO 23] . Its CRF2R Emax was 100

Entry under test: ZGPPISIDLPGYLLRKMIEIEKQEKEKQQAANNRLLLDTI (C-terminal amide) [SEQ ID NO 63] . Its CRF2R Emax was 100
